These data points were gathered from paper PMC11401107.

Biological target: soybean 15-LOX (Glycine max, UniProt P08170)
Sequence (P08170 1-839): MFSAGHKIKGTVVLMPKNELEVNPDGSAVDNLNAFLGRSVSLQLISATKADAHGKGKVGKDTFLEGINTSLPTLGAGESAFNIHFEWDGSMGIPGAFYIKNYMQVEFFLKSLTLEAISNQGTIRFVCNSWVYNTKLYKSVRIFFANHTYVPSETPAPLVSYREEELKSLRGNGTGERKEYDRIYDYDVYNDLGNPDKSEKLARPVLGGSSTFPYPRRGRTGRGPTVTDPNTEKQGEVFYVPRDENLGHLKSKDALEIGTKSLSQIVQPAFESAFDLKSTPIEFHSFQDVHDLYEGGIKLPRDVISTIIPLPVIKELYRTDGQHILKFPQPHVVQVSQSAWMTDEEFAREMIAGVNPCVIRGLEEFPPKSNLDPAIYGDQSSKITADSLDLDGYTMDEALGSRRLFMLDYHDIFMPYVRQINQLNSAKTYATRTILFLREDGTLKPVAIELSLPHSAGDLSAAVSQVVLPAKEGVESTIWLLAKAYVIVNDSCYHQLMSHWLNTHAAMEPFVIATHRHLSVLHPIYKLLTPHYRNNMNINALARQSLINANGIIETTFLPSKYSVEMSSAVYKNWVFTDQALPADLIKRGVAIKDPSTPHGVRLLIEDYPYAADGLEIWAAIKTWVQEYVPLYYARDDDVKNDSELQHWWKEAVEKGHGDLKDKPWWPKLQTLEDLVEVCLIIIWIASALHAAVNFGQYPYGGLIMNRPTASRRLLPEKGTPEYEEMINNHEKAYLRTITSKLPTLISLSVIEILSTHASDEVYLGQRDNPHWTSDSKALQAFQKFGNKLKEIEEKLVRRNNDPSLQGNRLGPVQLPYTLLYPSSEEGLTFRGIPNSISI
endpoint: IC50

CCn1c(SC(C)C(=O)Nc2cc(C)cc(C)c2)nnc1C1CCN(C(=O)Nc2ccccc2)CC1 (centres unmarked): > 200 µM

Which IC50 reading was recorded for the compound CCn1c(SC(C)C(=O)Nc2c(C)cccc2C)nnc1C1CCN(C(=O)Nc2ccccc2)CC1 (centres unmarked) ?
> 200 µM
